Hello, the source for this data is ChEMBL document CHEMBL1140031, in case you need it.

experiment: Antioxidant activity assessed as H2O2 scavenging activity at 125 uM; type: functional
Label rule, in plain words: Activity of 40% and up is TRUE, under 40% is FALSE.

Q. Reported Activity at or above 40%? O=c1cc(/C=C/c2ccc(O)c(O)c2)oc2cc(O)cc(O)c12
A. TRUE

Q. Now consider O=c1cc(/C=C/c2ccc(O)cc2)oc2cccc(O)c12 and answer again.
A. FALSE

Q. Okay, and O=c1cc(/C=C/c2ccc(O)c(O)c2)oc2cc(O)ccc12 ?
A. TRUE

---

assay: Antioxidant activity assessed as hypochlorous acid scavenging activity; format: functional
Task for the reader: assign each of the following compounds its reported log10 IC50.
Hello, just confirming the data are log10 of IC50 with units of µM.

Example entries and their recorded answers appear below.
| MOL | MEASURED ATTRIBUTE | OBS VALUE |
| --- | --- | --- |
| O=c1cc(/C=C/c2ccc(O)c(O)c2)oc2cccc(O)c12 | log10 IC50 | 1.23 |
| O=c1cc(/C=C/c2ccccc2)oc2cc(O)ccc12 | log10 IC50 | 1.86 |
| O=c1cc(/C=C/c2ccc(O)cc2)oc2cc(O)cc(O)c12 | log10 IC50 | 0.93 |
| O=c1cc(/C=C/c2ccc(O)c(O)c2)oc2cc(O)ccc12 | log10 IC50 | 1.26 |
| O=c1cc(/C=C/c2ccc(O)cc2)oc2cc(O)ccc12 | log10 IC50 | 1.96 |
| O=c1cc(/C=C/c2ccc(O)c(O)c2)oc2ccccc12 | log10 IC50 | 1.49 |

Fill in log10 IC50 for each of the 2 compounds listed.
1. O=c1cc(/C=C/c2ccc(O)c(O)c2)oc2cc(O)cc(O)c12
2. O=c1cc(/C=C/c2ccccc2)oc2cc(O)cc(O)c12

A.
1: 0.59; 2: 0.76

---

experiment: Antioxidant activity assessed as H2O2 scavenging activity at 125 uM; assay type: functional
MEASURED ATTRIBUTE: Activity (%)
One number for each entry, in %.

| MOL | READING UNIT | OBS VALUE |
| --- | --- | --- |
| O=c1cc(/C=C/c2ccc(O)c(O)c2)oc2ccccc12 | % | 44.1 |

Look at each molecule and report its Activity.
1. O=c1cc(/C=C/c2ccc(O)c(O)c2)oc2cccc(O)c12
2. O=c1cc(/C=C/c2ccc(O)cc2)oc2cc(O)cc(O)c12

A.
1: 50.8; 2: 10.6
